Molecular target: T1, hIRP1 (GST fusion) (human, UniProt P21399 1-889)
T1 sequence: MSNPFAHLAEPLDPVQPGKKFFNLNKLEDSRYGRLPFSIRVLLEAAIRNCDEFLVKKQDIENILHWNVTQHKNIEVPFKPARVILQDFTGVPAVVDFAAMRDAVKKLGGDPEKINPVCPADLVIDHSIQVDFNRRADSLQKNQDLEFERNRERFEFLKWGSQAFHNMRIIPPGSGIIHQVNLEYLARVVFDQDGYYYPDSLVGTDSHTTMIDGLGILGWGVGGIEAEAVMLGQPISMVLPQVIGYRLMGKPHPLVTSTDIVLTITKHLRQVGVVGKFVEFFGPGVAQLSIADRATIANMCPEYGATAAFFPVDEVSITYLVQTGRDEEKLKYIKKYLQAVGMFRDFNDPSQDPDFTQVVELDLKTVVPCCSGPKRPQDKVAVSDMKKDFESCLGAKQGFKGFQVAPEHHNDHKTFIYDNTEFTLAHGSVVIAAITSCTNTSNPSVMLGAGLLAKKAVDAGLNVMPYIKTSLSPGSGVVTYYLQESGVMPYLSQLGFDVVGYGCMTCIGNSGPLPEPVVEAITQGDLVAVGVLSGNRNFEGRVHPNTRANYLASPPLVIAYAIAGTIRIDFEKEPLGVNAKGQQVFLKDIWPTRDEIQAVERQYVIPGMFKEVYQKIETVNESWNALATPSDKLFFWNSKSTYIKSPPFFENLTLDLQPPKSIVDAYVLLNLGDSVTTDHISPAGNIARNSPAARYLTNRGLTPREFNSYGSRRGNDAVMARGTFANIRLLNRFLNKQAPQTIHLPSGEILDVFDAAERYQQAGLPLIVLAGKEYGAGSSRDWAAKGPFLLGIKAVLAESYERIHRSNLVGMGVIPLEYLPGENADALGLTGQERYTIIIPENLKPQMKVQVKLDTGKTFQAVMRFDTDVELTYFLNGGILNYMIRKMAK
Assay: EMSA; 2 mM Mg2+; 5.2 nM RNA; data not shown; 10 mM HEPES pH 7.6, 2 mM MgCl2, 40 mM KCl, 5% glycerol, 1 mM DTT, 20 uL, room temperature 30 min, […] (7%/14%) […]
Conditions: protein: recombinant; label: 32P-CTP; hairpin
pKd: −log10 of the molar value.
ATTRIBUTE MEASURED: pKd

* GACCGUGCCCGUGAGCACGUC (structured_RNA) [ET1+2+3] | ~10.30

The measurements presented in this section are drawn from paper PMC2649033.
